target: T1, recombinant CD3D&E protein (human CD3-his tag) (human, UniProt P04234 22-105; P07766 23-126, limits assumed); test: SPR Biacore, Ab captured on Protein A;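 further: humanized antibodies on a Protein A chip, human CD3-his analyte flowed over in serial dilutions for 3 min, dissociation tracked 120–360 s on a Biacore T200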
T1 construct: Analyte in Biacore; also called CD3D&E-His; CD3d&ε-His
T1 sequence (P04234 22-105 limits assumed, chain 1 of 2): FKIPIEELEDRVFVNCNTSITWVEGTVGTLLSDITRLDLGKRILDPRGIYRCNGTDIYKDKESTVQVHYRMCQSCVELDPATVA
T1 sequence (P07766 23-126 limits assumed, chain 2 of 2): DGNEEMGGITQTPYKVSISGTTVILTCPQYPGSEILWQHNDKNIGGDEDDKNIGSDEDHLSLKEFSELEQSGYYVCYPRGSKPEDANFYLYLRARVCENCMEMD
ENDPOINT_LABEL: koff (s⁻¹)
The answer is to be given in s⁻¹; state only the numeric part.

Can you look up the measured koff of Hu192A7B9-13 (antibody, V domains shown, humanized mAb) VH: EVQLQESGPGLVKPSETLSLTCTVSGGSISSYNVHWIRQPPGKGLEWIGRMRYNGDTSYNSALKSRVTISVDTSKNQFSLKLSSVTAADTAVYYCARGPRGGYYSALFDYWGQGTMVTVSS VL: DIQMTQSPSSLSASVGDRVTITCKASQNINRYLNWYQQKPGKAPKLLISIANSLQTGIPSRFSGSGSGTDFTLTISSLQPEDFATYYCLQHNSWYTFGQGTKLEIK for me? 0.00631

The measured values listed here are drawn from patent US20240417469A1.
